Provide the reported IC50 of each item.
- target-or-test-system: VIM-2 (Escherichia coli, UniProt Q5U7L7)
- assay-comment: Enzyme inhibition assay (spectrophotometric, cephalothin reporter substrate)
- test-parameters: mean of two replicates, five inhibitor concentrations, Dixon plot; pH 7.5, 25 °C
Answers are plain numbers, in µM.

>>> number("CC(C)(C)OC(=O)Nc1cccc2cc(B(O)O)sc12")
103
>>> number("CC1(C)OB(c2cc3cccc(C(=O)O)c3s2)OC1(C)C")
27.7
>>> number("Cc1ccc2sc(B3OC(C)(C)C(C)(C)O3)cc2c1")
72
>>> number("NCc1ccc2sc(B(O)O)cc2c1")
26.9
>>> number("CC(C)(C)OC(=O)c1cccc2cc(B3OC(C)(C)C(C)(C)O3)sc12")
20.2

With those in mind, consider the next compound.
Given the entry CC1(C)OB(c2cc3cc(CBr)ccc3s2)OC1(C)C , report its measured IC50. 83.5

###

- target-or-test-system: NDM-1 (Klebsiella pneumoniae)
- Sequence (C7C422 29-270 limits assumed): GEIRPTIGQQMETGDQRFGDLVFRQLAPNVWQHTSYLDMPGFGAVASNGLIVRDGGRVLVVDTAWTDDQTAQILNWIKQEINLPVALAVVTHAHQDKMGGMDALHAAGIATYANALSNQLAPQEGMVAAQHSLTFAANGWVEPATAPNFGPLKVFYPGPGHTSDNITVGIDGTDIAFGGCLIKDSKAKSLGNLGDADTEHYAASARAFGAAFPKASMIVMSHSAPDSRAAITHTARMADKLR
- assay-comment: Enzyme inhibition assay (spectrophotometric, cephalothin reporter substrate)
- test-parameters: mean of two replicates, five inhibitor concentrations, Dixon plot; pH 7.5, 25 °C
experimental-endpoint: IC50 (µM)
Answers are plain numbers, in µM.

Example molecules with recorded IC50:
>>> number("CC1(C)OB(c2cc3cc(CBr)ccc3s2)OC1(C)C [Compound 2]")
64.6
>>> number("Cc1ccc2sc(B3OC(C)(C)C(C)(C)O3)cc2c1 [Compound 1]")
68.4
>>> number("CC(C)(C)OC(=O)c1cccc2cc(B3OC(C)(C)C(C)(C)O3)sc12 [Compound 4]")
35.7
>>> number("NCc1ccc2sc(B(O)O)cc2c1 [Compound 3]")
60.7
>>> number("CC(C)(C)OC(=O)Nc1cccc2cc(B(O)O)sc12 [Compound 6]")
117

With those in mind, consider the next molecule.
Given the entry CC1(C)OB(c2cc3cccc(C(=O)O)c3s2)OC1(C)C [Compound 5] , report its measured IC50. 32.4

###

- target-or-test-system: AmpC β-lactamase (Pseudomonas aeruginosa, UniProt P24735)
- Sequence (P24735 27-397): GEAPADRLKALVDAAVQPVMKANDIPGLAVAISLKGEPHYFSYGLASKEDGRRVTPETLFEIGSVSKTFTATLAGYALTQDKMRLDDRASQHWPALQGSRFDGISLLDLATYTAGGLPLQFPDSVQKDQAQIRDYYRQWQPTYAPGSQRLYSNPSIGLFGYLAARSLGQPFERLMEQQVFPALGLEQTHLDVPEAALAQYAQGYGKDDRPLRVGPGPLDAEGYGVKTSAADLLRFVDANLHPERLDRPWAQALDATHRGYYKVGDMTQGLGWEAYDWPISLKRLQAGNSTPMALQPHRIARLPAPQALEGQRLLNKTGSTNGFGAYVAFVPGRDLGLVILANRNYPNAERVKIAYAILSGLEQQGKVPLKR
- assay-comment: Enzyme inhibition assay (spectrophotometric, cephalothin reporter substrate)
- test-parameters: mean of two replicates, five inhibitor concentrations, Dixon plot, 100 μM cephalothin, pH 7.5, 25 °C
- Description: To obtain a well-characterized inhibition profile for each selected boronic acids against each BLs in the panel, the compounds were tested for inhibitory activity. The protein panel included clinically- and epidemiologically-relevant β-lactamases, representatives of each structural class (A to D), as mentioned above. Each BL was overexpressed in E. coli, purified by chromatography and characterized as already reported. (SI, Table S1)[40]–[45]. […]
Provide the reported IC50 of each item.
Numbers only, in nM.

Example molecules with recorded IC50:
>>> number("NCc1ccc2sc(B(O)O)cc2c1")
160
>>> number("Cc1ccc2sc(B3OC(C)(C)C(C)(C)O3)cc2c1")
400

// for each molecule below, give its IC50
1. CC1(C)OB(c2cc3cccc(C(=O)O)c3s2)OC1(C)C
2. CC(C)(C)OC(=O)Nc1cccc2cc(B(O)O)sc12
3. CC1(C)OB(c2cc3cc(CBr)ccc3s2)OC1(C)C

1: 1300; 2: 4400; 3: 200

###

Provide the reported MIC of ceftazidime (CAZ) in combination with compound of each item.
- System: P. aeruginosa 199, overproduction chromosomal AmpC
- assay-comment: Susceptibility testing (MIC), synergy with ceftazidime
- Assay type: cell-based
- test-parameters: antibiotic:inhibitor 1:1 (w/w)
Numbers only, in µg/mL.

Example compounds with recorded MIC of ceftazidime (CAZ) in combination with compound:
>>> number("Cc1ccc2sc(B3OC(C)(C)C(C)(C)O3)cc2c1")
16
>>> number("CC1(C)OB(c2cc3cccc(C(=O)O)c3s2)OC1(C)C")
16
>>> number("CC1(C)OB(c2cc3cc(CBr)ccc3s2)OC1(C)C")
16
>>> number("NCc1ccc2sc(B(O)O)cc2c1")
64
>>> number("CC(C)(C)OC(=O)Nc1cccc2cc(B(O)O)sc12")
64

With those in mind, consider the next compound.
Given the entry CC(C)(C)OC(=O)c1cccc2cc(B3OC(C)(C)C(C)(C)O3)sc12 , report its measured MIC of ceftazidime (CAZ) in combination with compound. 64

###

- target-or-test-system: OXA-24 (Acinetobacter baumannii, UniProt Q8RLA6)
- Construct: GST (N, cleaved yes); made in house; host or cells: E. coli DH5α, pGEX-2T-OXA-24
- Sequence (Q8RLA6 22-275 limits assumed): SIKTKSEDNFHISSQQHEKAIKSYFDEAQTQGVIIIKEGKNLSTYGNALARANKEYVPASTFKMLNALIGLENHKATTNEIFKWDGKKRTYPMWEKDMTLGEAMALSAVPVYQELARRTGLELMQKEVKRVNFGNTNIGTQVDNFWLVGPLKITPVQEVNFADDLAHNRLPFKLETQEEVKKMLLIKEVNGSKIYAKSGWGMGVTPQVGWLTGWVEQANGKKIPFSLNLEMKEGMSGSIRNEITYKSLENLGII
- assay-comment: Enzyme inhibition assay (spectrophotometric, cephalothin reporter substrate)
- Assay type: biochemical
Provide the reported IC50 of each item.
One number for each entry, in µM.

Example molecules with recorded IC50:
>>> number("CC(C)(C)OC(=O)c1cccc2cc(B3OC(C)(C)C(C)(C)O3)sc12 [Compound 4]")
38
>>> number("CC1(C)OB(c2cc3cc(CBr)ccc3s2)OC1(C)C [Compound 2]")
93
>>> number("CC(C)(C)OC(=O)Nc1cccc2cc(B(O)O)sc12 [Compound 6]")
88
>>> number("CC1(C)OB(c2cc3cccc(C(=O)O)c3s2)OC1(C)C [Compound 5]")
23
>>> number("NCc1ccc2sc(B(O)O)cc2c1 [Compound 3]")
132

Given the entry Cc1ccc2sc(B3OC(C)(C)C(C)(C)O3)cc2c1 [Compound 1] , report its measured IC50. 113

###

- target-or-test-system: CTX-M-15 (Escherichia coli)
- Construct: made in house; host or cells: E. coli BL21(DE3), pET-9a derivative (pET-CTX-M-15)
- Sequence (Q9EXV5 entry or part of it): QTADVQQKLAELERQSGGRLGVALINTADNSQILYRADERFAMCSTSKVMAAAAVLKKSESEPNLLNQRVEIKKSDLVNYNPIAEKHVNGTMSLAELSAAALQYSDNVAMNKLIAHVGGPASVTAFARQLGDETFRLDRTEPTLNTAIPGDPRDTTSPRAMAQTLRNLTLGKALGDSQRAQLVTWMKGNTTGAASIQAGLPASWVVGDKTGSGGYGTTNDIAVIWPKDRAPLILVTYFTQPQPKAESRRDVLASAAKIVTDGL
- assay-comment: Enzyme inhibition assay (spectrophotometric, cephalothin reporter substrate)
- Type: biochemical
- test-parameters: IC50 CTX-M-15, mean of two replicates, five inhibitor concentrations, Dixon plot; pH 7.5, 25 °C
experimental-endpoint: pIC50
Answers are plain numbers, as −log10 of the molar value.

Example compounds with recorded pIC50:
>>> number("CC1(C)OB(c2cc3cc(CBr)ccc3s2)OC1(C)C")
5.08
>>> number("NCc1ccc2sc(B(O)O)cc2c1")
5.28
>>> number("CC1(C)OB(c2cc3cccc(C(=O)O)c3s2)OC1(C)C")
5.03
>>> number("Cc1ccc2sc(B3OC(C)(C)C(C)(C)O3)cc2c1")
5.19

With those in mind, consider the next compound.
Given the entry CC(C)(C)OC(=O)Nc1cccc2cc(B(O)O)sc12 , report its measured pIC50. 5.01

###

- System: VIM-2 P. aeruginosa clinical isolate
- assay-comment: Susceptibility testing (MIC), synergy with cefotaxime
- Format: cell-based
- test-parameters: antibiotic:inhibitor 1:1 (w/w)
experimental-endpoint: MIC of cefotaxime (CTX) in combination with compound (µg/mL)
Numbers only, in µg/mL.

>>> number("CC1(C)OB(c2cc3cccc(C(=O)O)c3s2)OC1(C)C")
1024

// for each compound below, give its MIC of cefotaxime (CTX) in combination with compound
1. NCc1ccc2sc(B(O)O)cc2c1
2. CC(C)(C)OC(=O)c1cccc2cc(B3OC(C)(C)C(C)(C)O3)sc12
3. Cc1ccc2sc(B3OC(C)(C)C(C)(C)O3)cc2c1

1. 8
2. 1024
3. 1024
